Molecular target: Receptor tyrosine-protein kinase erbB-2 (Homo sapiens, UniProt P04626)
Sequence (P04626 whole entry): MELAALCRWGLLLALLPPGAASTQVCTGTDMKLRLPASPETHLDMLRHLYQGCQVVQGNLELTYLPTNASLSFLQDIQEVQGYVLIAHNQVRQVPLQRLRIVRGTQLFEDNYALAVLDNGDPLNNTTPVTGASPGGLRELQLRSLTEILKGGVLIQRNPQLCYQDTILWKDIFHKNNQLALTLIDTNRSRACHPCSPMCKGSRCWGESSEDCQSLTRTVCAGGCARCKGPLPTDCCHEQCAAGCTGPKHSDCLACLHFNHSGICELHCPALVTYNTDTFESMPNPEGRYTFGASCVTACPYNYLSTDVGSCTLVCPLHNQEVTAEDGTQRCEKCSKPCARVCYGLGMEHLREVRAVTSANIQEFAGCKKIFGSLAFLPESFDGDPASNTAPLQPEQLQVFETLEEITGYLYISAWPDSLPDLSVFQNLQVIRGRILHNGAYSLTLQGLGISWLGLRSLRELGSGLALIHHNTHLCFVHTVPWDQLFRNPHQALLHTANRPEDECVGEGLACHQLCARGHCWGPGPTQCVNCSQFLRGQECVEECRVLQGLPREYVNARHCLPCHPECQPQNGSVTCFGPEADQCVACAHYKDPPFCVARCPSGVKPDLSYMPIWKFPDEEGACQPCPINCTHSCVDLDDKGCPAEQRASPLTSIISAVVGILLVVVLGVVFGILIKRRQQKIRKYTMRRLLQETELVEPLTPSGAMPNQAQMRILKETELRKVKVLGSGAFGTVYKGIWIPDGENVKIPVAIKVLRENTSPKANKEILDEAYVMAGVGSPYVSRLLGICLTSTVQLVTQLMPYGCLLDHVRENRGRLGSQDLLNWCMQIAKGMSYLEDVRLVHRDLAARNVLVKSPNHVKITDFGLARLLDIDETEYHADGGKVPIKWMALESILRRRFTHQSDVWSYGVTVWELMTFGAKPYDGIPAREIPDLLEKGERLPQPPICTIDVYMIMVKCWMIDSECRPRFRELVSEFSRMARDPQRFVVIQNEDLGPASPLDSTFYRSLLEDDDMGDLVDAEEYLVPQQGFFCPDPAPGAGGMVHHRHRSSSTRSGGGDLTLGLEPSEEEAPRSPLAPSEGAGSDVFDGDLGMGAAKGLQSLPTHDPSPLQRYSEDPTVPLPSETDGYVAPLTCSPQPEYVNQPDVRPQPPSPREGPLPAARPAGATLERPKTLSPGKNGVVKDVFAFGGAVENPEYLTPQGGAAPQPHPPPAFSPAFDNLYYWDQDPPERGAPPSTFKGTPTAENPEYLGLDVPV
measured_attribute: IC50

Quote Receptor tyrosine-protein kinase erbB-2 (Homo sapiens, UniProt P04626) IC50 for entry CCN(CC)C/C=C/c1nc(O)c2c(ccc3nc(Nc4c(Cl)cccc4Cl)n(C)c32)c1C . > 10 µM

---

Assay: tissue or blood
Assay type: functional, tissue-based
Conditions: Homo sapiens
pEC50 for assorted compounds
Kindly note that pEC50 refers to -log10 of the concentration in mol/L and answer with the value alone.

Reference set (4 entries):
>>> endpoint_value("Cc1c(/C=C/CN2CCOCC2)nc(O)c2c1ccc1nc(Nc3c(Cl)cccc3Cl)n(C)c12")
6.77
>>> endpoint_value("C=Cc1nc(O)c2c(ccc3nc(Nc4c(Cl)cccc4Cl)n(C)c32)c1C")
6.05
>>> endpoint_value("Cc1c(/C=C/CN(C)C)nc(O)c2c1ccc1nc(Nc3c(Cl)cccc3Cl)n(C)c12")
6.25
>>> endpoint_value("Cc1c(/C=C/CN)nc(O)c2c1ccc1nc(Nc3c(Cl)cccc3Cl)n(C)c12")
6.04

Give recorded pEC50. CCN(CC)C/C=C/c1nc(O)c2c(ccc3nc(Nc4c(Cl)cccc4Cl)n(C)c32)c1C 6.89

Give recorded pEC50. Cc1c(/C=C/CN2CCCC2)nc(O)c2c1ccc1nc(Nc3c(Cl)cccc3Cl)n(C)c12 6.82
